- tested-on: nAChR subunit α1 (Homo sapiens)
- Construct: purchased MyBioSource MBS963713
- Sequence (P02708 21-457): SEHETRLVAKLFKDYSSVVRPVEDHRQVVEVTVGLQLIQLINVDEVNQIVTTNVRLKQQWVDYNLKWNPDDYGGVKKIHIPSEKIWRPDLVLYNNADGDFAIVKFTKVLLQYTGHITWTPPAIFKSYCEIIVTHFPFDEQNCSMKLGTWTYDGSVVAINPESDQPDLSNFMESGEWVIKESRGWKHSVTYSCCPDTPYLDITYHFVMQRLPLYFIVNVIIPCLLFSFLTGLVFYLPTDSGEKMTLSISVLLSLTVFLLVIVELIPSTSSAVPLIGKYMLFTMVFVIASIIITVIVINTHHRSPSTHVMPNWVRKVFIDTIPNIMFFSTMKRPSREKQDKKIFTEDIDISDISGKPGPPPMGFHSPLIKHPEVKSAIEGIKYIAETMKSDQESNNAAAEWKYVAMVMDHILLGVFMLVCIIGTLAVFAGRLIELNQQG
- measurement-notes: SPR binding affinity to immobilized nAChR subunit α1
- assay-setup: binding affinity to nAChR subunit α1, bound given in abstract; SPR
pKd: −log10 of the molar value. Where no end group is shown, it is not given here.
readout-name: pKd

1) RRGVRR [Peptide 289] ... > 6.00

----------
- tested-on: nAChR subunit α1 (Homo sapiens)
- Construct: purchased MyBioSource MBS963713
- measurement-notes: SPR binding affinity to immobilized nAChR subunit α1
- assay-setup: equilibrium dissociation constant (KD), SPR, 200-1200 nM, 20 mM Tris pH 7, BIAevaluation 3.1
pKd: −log10 of the molar value. Where no end group is shown, it is not given here.
readout-name: pKd

1) RRGVRR [Peptide 289] ... 6.22

Data provenance: paper PMC11277145
